Recorded values, source PubChem BioAssay AID1159580.

Please provide measured normalized growth for the entries that follow.
# methodSummary: chemical genetic growth profiling, strain panel (AID 1159580);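 also: tested at 20 µM; growth read once vehicle control cultures reached saturation at 30 °C; 1 = growth at the plate median or of vehicle wells; lower values mean less growth of the strain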
# runParameters: S. cerevisiae deletion strains, growth OD, locus YNL298W, strain CLA4, active compounds read low
In all, about 5,500 compounds went through this assay and about 2,000 (36%) were called active. Another 18% or so got no clear call; they are omitted. This is one part of the list.
Give your answer as a number; write no unit.

// CC(C)NC[C@H](O)COc1cccc2ccccc12 : normalized growth value = 1.01

// CCCC(=O)O[C@]1(C(=O)CO)CCC2[C@@H]3CCC4=CC(=O)CC[C@]4(C)C3[C@@H](O)C[C@@]21C (stereo not given in full) : normalized growth value = 0.972

// O=c1cc[nH]c(=S)[nH]1 : normalized growth value = 1.02

// C=C1C(=O)O[C@@H]2C[C@@]3(C)CCC[C@H](C)C3=C[C@H]12 : normalized growth value = 0.943

// CC[N+](CC)(CC)CCOc1cccc(OCC[N+](CC)(CC)CC)c1OCC[N+](CC)(CC)CC : normalized growth value = 1.01

// CCN(CC)C(=O)c1cccc(C)c1 : normalized growth value = 0.987

// O=C1CC2OCC=C3CN4CC[C@]56c7ccccc7N1C5[C@H]2[C@H]3CC46 (stereo not given in full) : normalized growth value = 0.993

// COC(=O)C1=CCCN(C)C1 : normalized growth value = 1

// CC1C[C@H]2CC(=O)[C@H]3CCCN4CCC[C@H]2[C@]34C1 (stereo not given in full) : normalized growth value = 1.01

// C[C@@H]1C(=O)OC2[C@H](O)C34[C@@H]5OC(=O)[C@@]3(O[C@@H]3OC(=O)[C@H](O)[C@@]34[C@H](C(C)(C)C)[C@H]5O)[C@]21O (stereo not given in full) : normalized growth value = 1.02

---

# methodSummary: chemical genetic growth profiling, strain panel (AID 1159580);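 also: tested at 20 µM; growth read once vehicle control cultures reached saturation at 30 °C; 1 = growth at the plate median or of vehicle wells; lower values mean less growth of the strain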
# runParameters: S. cerevisiae deletion strains, growth OD, locus YIL125W, strain kgd1, active compounds read low
The whole screen tested about 5,500 compounds, of which about 2,000 (36%) were called active. Roughly 18% stayed inconclusive and do not appear here. Some of the results follow.
Please provide measured normalized growth for the entries that follow.
Give your answer as a number; write no unit.

// CC(C)[C@@H]1CC[C@@H](C)C[C@H]1O : normalized growth value = 1.01

// Cc1ccc(Cl)c(Nc2ccccc2C(=O)O)c1Cl : normalized growth value = 0.981

// CC(C)NNC(=O)c1ccncc1 : normalized growth value = 1.01

// NS(=O)(=O)c1cc2c(cc1Cl)NC(C(Cl)Cl)NS2(=O)=O (configuration not stated) : normalized growth value = 1.01

// COC(=O)C(O)c1ccccc1 (configuration not stated) : normalized growth value = 1

// CO[C@@]1(NC(=O)CSCC#N)C(=O)N2C(C(=O)O)=C(CSc3nnnn3C)CSC21 (some centres not stated) : normalized growth value = 1.03

// CC1(C)C2(Cl)C(Cl)C(Cl)C(Cl)(C(Cl)Cl)C1(Cl)C2Cl (configuration not stated) : normalized growth value = 0.981

// C=C1CCC2C(CC2(C)C)C(=C)CC/C1=N\O (configuration not stated) : normalized growth value = 0.993

// C[C@@H]1C(=O)OC2[C@H](O)C34[C@@H]5OC(=O)[C@@]3(O[C@@H]3OC(=O)[C@H](O)[C@@]34[C@H](C(C)(C)C)[C@H]5O)[C@]21O (some centres not stated) : normalized growth value = 1.01

// CCCCCCOc1ccccc1C(N)=O : normalized growth value = 0.796

// COc1cc(-c2coc3cc(OCc4ccccc4)c(OC)c(O)c3c2=O)cc(O)c1OC : normalized growth value = 1

// O=c1[nH]oc2c1CCNC2 : normalized growth value = 0.987

// CCC(C)c1cnc(CC(C)C)c(=O)n1O (configuration not stated) : normalized growth value = 0.815

// COc1ccc2c(c1O)OCC1c3cc4c(cc3OC21)OCO4 (configuration not stated) : normalized growth value = 0.99

// O=C(Cn1ccnc1[N+](=O)[O-])NCCO : normalized growth value = 0.997

// C=C1CCC2C(CC2(C)C)C(=O)CCC1O (configuration not stated) : normalized growth value = 1.01

// CC(=O)N[C@@H](CS)C(=O)O : normalized growth value = 1.02

// CC(C)NCC(O)c1cc(O)cc(O)c1 (configuration not stated) : normalized growth value = 1.01

// CC[C@H](C)C(=O)O[C@H]1C[C@@H](C)C=C2C=C[C@H](C)[C@H](CC[C@@H]3C[C@@H](O)CC(=O)O3)[C@H]21 : normalized growth value = 0.974

// COc1cc2occ(-c3ccccc3)c(=O)c2c(OC)c1C : normalized growth value = 0.955

// CCCNC1CCc2nc(N)sc2C1 (configuration not stated) : normalized growth value = 1

// CCC(C)(C)C(=O)O[C@H]1C[C@@H](C)C=C2C=C[C@H](C)[C@H](CC[C@@H]3C[C@@H](O)CC(=O)O3)[C@H]21 : normalized growth value = 1.04

// Nc1nc2ncc(=O)[nH]c2c(=O)[nH]1 : normalized growth value = 0.981

// COc1ccc2c(c1)O[C@H]1c3ccc(OC)cc3OC[C@@H]21 : normalized growth value = 0.973

// COc1cc(-c2coc3cc(OC)c(OC)c(OC)c3c2=O)cc(OC)c1OC : normalized growth value = 1.01

// CN1C(C(=O)Nc2ccccn2)=C(O)c2ccccc2S1(=O)=O : normalized growth value = 0.946

// C/C1=C\CCC(=O)C2CC(C)(C)C2CC1 (configuration not stated) : normalized growth value = 1.02

// Oc1ccc(Cl)cc1 : normalized growth value = 0.975

// C=C1C(=O)OC2CC1C(OC(C)=O)C/C(C)=C/CC/C(C)=C/CC[C@]2(C)O (some centres not stated) : normalized growth value = 1.01

// CCOC(=O)[C@H](CCc1ccccc1)N[C@@H](C)C(=O)N1[C@H](C(=O)O)C[C@@H]2CCC[C@@H]21 : normalized growth value = 1.03

// O=C1NC(=O)C(=O)C(=O)N1 : normalized growth value = 1

// O=S1OCC2C(CO1)C1(Cl)C(Cl)=C(Cl)C2(Cl)C1(Cl)Cl (configuration not stated) : normalized growth value = 0.982

// C=CCSCC1Nc2cc(Cl)c(S(N)(=O)=O)cc2S(=O)(=O)N1 (configuration not stated) : normalized growth value = 1.02

// Cc1cc(-c2ccccc2)nnc1NCCN1CCOCC1 : normalized growth value = 0.977

// Cc1cccc(Nc2ccccc2C(=O)O)c1C : normalized growth value = 0.985

// C=C1CCC(=O)C(C)CCC2C1CC2(C)C (configuration not stated) : normalized growth value = 0.987

// Cc1cccc(C(=O)O)c1O : normalized growth value = 1.01

// COc1ccc([C@H]2Oc3cc(OC)cc(OC)c3C[C@H]2O)cc1 : normalized growth value = 1

// Cc1cccc(C)c1NC1=NCCCS1 : normalized growth value = 0.987

// CCCCN1CCCCC1C(=O)Nc1c(C)cccc1C (configuration not stated) : normalized growth value = 0.997

// O=C(O)CN1C(=O)c2cccc3cccc(c23)C1=O : normalized growth value = 0.989

// CC[C@H](C)C(=O)O[C@H]1CCC=C2C=C[C@H](C)C(CCC3C[C@@H](O)CC(=O)O3)[C@H]21 (some centres not stated) : normalized growth value = 0.99

// COc1cc(-c2coc3cc(OCc4ccccc4)c(OC)c(O)c3c2=O)cc(OCc2ccccc2)c1OC : normalized growth value = 0.984

// O=C(C1CCCCC1)N1CC(=O)N2CCc3ccccc3C2C1 (configuration not stated) : normalized growth value = 1.01

// C=C1C(C)C2C(Cc3ccccc3)NC(=O)C23OC(=O)/C=C/C(O)CCCC(C)C/C=C/C3C1O (configuration not stated) : normalized growth value = 0.984

// COc1c2ccoc2c(OC)c2oc(=O)ccc12 : normalized growth value = 0.984

// COc1ccc(CCN2CCC(Nc3nc4ccccc4n3Cc3ccc(F)cc3)CC2)cc1 : normalized growth value = 0.993

---

# methodSummary: chemical genetic growth profiling, strain panel (AID 1159580);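 also: tested at 20 µM; growth read once vehicle control cultures reached saturation at 30 °C; 1 = growth at the plate median or of vehicle wells; lower values mean less growth of the strain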
# runParameters: S. cerevisiae deletion strains, growth OD, locus YNL233W, strain BNI4
The whole screen tested about 5,500 compounds, of which about 2,000 (36%) were called active. Not shown: some 18% with an inconclusive outcome. Rule as the data show it: active = normalized growth mostly below about 0.91 (no sharp cut-off); inconclusive = no clear call, values can overlap the other calls; inactive = mostly above about 0.92. This is one part of the list.
Write down one outcome, taken from active, inactive

What did this assay record as the result for CC1(C)OC(=O)C=CC2(C)C1CC(O)C1(C)C2CCC2(C)C(c3ccoc3)OC(=O)C3OC321 (stereo unspecified) ?
inactive

What did this assay record as the result for Cc1cccc(C)c1NC1=NCCCS1 ?
inactive

What did this assay record as the result for C=CCSCC1Nc2cc(Cl)c(S(N)(=O)=O)cc2S(=O)(=O)N1 (stereo unspecified) ?
inactive

What did this assay record as the result for C=C1CCC(OC(C)=O)/C(C)=C/C[C@@H]2[C@@H]1CC2(C)C (stereo partly specified) ?
inactive

What did this assay record as the result for O=C(O)c1ccccc1-c1c2cc(Br)c(=O)cc-2oc2[c]([Hg])c(O)c(Br)cc12 ?
active

What did this assay record as the result for CC1C[C@H]2CC(=O)[C@H]3CCCN4CCC[C@H]2[C@]34C1 (stereo partly specified) ?
inactive

What did this assay record as the result for O=C(Cn1ccnc1[N+](=O)[O-])NCCO ?
inactive

What did this assay record as the result for Nc1nc2ncc(=O)[nH]c2c(=O)[nH]1 ?
inactive

What did this assay record as the result for Nc1ccn(C2O[C@H](CO)[C@@H](O)[C@@H]2O)c(=O)n1 (stereo partly specified) ?
inactive

What did this assay record as the result for CC1(C)O[C@H]2[C@H](O)C[C@](O)(C(N)=O)C[C@H]2O1 ?
inactive

What did this assay record as the result for Clc1cccc(Cl)c1NC1=NCCN1 ?
inactive
